- Tested On: T1, human CCR8 (human, UniProt P51685 1-355)
- T1 construct: whole, on cells; also called hCCR8
- T1 sequence (P51685 whole entry): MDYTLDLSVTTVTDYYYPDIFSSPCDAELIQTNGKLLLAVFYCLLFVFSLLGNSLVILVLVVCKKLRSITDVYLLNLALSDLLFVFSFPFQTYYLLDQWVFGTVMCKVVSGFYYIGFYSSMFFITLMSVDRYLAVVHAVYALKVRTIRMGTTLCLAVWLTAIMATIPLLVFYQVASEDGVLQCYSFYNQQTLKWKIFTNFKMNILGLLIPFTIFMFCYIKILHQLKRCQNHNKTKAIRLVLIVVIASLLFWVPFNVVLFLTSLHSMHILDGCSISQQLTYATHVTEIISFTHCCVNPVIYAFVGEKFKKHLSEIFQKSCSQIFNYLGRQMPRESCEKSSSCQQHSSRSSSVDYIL
- Procedure Summary: FACS, competition with CCL1 on CHO-K1-human CCR8 cells

# Binder, Max Inhibition (%)
measured = [
    ("Hu149-19 (antibody, human IgG1, V domains shown, human IgG1) VH: EVQLVESGGGLVQPGGSLKLSCAASGFTFNTYAMNWVRQASGKGLEWVGRIRSKSNFYATAYAASVKGRFTISRDDSKNTAYLQMNSLKTEDTAVYYCTRGREYGSSYAMDYWGQGTLVTVSS VL: DIVMTQSPLSLPVTPGEPASISCRSSKSLLHSNANTYLYWFLQKPGQSPQLLIYRMSNLASGVPDRFSGSGSGTDFTLKISRVEAEDVGVYYCMQHLKYPLTFGGGTKVELK", 100),
    ("Hu149-14 (antibody, human IgG1, V domains shown, human IgG1) VH: EVQLVESGGGLVQPGGSLKLSCAASGFTFNTYAMNWVRQASGKGLEWVGRIRSKSNFYATAYAASVKGRFTISRDDSKNTAYLQMNSLKTEDTAVYYCTRGREYGSAYAMDYWGQGTLVTVSS VL: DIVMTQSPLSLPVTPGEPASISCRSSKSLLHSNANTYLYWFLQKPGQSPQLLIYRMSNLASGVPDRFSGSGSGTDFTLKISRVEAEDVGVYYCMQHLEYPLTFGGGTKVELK", 100),
]
